Biological target: Receptor-type tyrosine-protein kinase FLT3 (Homo sapiens)
Sequence (P36888 whole entry): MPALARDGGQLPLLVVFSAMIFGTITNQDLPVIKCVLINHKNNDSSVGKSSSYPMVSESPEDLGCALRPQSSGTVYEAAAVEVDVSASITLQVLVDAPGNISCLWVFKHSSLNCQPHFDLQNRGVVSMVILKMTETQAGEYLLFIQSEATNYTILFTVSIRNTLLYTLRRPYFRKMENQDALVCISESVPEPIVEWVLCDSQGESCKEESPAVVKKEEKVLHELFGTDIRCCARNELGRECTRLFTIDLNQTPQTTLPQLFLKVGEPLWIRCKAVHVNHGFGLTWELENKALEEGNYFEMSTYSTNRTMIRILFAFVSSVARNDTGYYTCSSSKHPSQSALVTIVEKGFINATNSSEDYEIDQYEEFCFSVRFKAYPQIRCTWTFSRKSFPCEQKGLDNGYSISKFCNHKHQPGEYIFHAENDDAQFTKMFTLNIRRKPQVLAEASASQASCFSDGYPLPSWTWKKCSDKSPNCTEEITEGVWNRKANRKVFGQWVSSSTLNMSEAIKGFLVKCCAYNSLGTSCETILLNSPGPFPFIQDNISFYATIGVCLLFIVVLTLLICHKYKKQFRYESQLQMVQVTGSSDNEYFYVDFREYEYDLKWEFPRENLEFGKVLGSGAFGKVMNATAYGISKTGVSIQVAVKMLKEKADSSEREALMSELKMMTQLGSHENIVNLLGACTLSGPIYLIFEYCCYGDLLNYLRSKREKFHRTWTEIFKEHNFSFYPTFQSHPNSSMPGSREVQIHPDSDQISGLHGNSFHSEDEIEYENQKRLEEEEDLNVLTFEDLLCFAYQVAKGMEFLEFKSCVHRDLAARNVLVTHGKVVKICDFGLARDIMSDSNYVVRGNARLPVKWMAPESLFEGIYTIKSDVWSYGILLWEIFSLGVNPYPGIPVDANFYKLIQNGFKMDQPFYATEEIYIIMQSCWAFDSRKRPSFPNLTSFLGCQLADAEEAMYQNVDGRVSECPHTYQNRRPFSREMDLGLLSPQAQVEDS
QUANTITY_KIND: pIC50
Answers are plain numbers, as −log10 of the molar value.

Name the recorded pIC50 for Nc1nccc(Oc2ccc(NC(=O)C3(C(=O)Nc4ccc(F)cc4)CC3)cc2F)c1Cl .
5.65

====

Provide the recorded IC50 for the entries that follow.
system: EBC-1; assay: cells; settings: Homo sapiens, EBC-1, 72 h

Solved entries (count: 4):
[
  {
    "STRUCTURE_STRING": "Nc1cc(Oc2ccc(NC(=O)C3(C(=O)Nc4ccc(F)cc4)CC3)cc2F)ncn1",
    "IC50": "> 1000 nM"
  },
  {
    "STRUCTURE_STRING": "Nc1nccc(Oc2ccc(NC(=O)C3(C(=O)Nc4ccc(F)cc4)CC3)cc2F)n1",
    "IC50": "> 1000 nM"
  },
  {
    "STRUCTURE_STRING": "Nc1nccc(Oc2ccc(NC(=O)C3(C(=O)Nc4ccc(F)cc4)CC3)cc2F)c1Cl",
    "IC50": "127 nM"
  },
  {
    "STRUCTURE_STRING": "CCOc1ccn(-c2ccc(F)cc2)c(=O)c1C(=O)Nc1ccc(Oc2ccnc(N)c2Cl)c(F)c1",
    "IC50": "162 nM"
  }
]

Hi there! I need IC50 for each item below, if you can.
1. Nc1cc(Oc2ccc(NC(=O)C3(C(=O)Nc4ccc(Cl)cc4)CC3)cc2F)ncn1
2. Nc1nccc(Oc2ccc(NC(=O)C3(C(=O)Nc4ccc(Cl)cc4)CC3)cc2F)c1Cl

1. > 1000 nM
2. 967 nM

Hi there! I need IC50 for each item below, if you can.
1. Nc1nccc(Oc2ccc(NC(=O)C3(C(=O)Nc4cccc(F)c4)CC3)cc2F)c1Cl
2. COc1cccc2c1C(=O)c1c(O)c3c(c(O)c1C2=O)C[C@@](O)(C(=O)CO)C[C@@H]3O[C@H]1C[C@H](N)[C@H](O)[C@H](C)O1

["> 1000 nM", "305 nM"]
